# test-description: chemical genetic growth profiling, strain panel (AID 1159580);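 further: tested at 20 µM; growth read once vehicle control cultures reached saturation at 30 °C; 1 = growth at the plate median or of vehicle wells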
# assay-conditions: S. cerevisiae deletion strains, growth OD, locus YNL298W, strain CLA4 (second series)
Screen size: about 5,500 compounds; about 2,000 (36%) were called active. Not shown: some 18% with an inconclusive outcome. No stated cut-off is given here; in the data, active means normalized growth mostly below about 0.91 (no sharp cut-off); inconclusive means no clear call, values can overlap the other calls; inactive means mostly above about 0.92. The list shows a part of the results.
// classify into 1.0 = active, 0.0 = inactive

Some solved cases for reference:
1. O=C(NNC(=S)Nc1ccc(F)cc1)c1ccccc1Cl | 0.0
2. O=C(NC(=S)NCc1ccncc1)c1ccccc1 | 0.0

Record lookup: outcome of this test for `O=C(NC(=S)Nc1ccccn1)c1ccccc1` ?
1.0

###

# test-description: chemical genetic growth profiling, strain panel (AID 1159580);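 further: tested at 20 µM; growth read once vehicle control cultures reached saturation at 30 °C; 1 = growth at the plate median or of vehicle wells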
# assay-conditions: S. cerevisiae deletion strains, growth OD, locus YLR133W, strain CKI1, stronger effect = lower value
Among all 5,500 compounds or so, about 2,000 (36%) were called active. Another 18% or so got no clear call; they are omitted. The list shows a part of the results.
quantity: normalized growth
# answer = number (no unit)

These solved cases illustrate the format of a correct answer.
1. COC(=O)C1=C(C)NC(C)=C(C(=O)OC)C1c1ccc(Cl)cc1Cl | 0.956
2. N#CC(C#N)=C/C=C(/Sc1nc2ccccc2s1)c1ccc(Br)cc1 | 0.149
3. CSc1cc(-c2ccncc2)nc(-c2cccs2)c1 | 0.962
4. CC(C)c1ccc(NC(=S)NC(=O)c2ccccc2)cc1 | 0.941
5. O=C(c1ccc2ccccc2c1)N1CCN(c2ccnc3cc(Cl)ccc23)CC1 | 0.95
6. NC(=Nc1ccc(F)cc1)SCc1c(Cl)cccc1Cl | 0.975
7. Cc1cc(Cl)ccc1NC(=S)NNC(=S)Nc1ccc(F)cc1 | 0.926
8. Cc1cc(Br)ccc1-n1c(Sc2c([N+](=O)[O-])cc(C(F)(F)F)cc2[N+](=O)[O-])nc2ccccc2c1=O | 0.95
9. COc1ccc(C(=O)CSC2=NCCc3ccccc32)cc1 | 1.01
10. O=[N+]([O-])c1ccccc1CS(=O)(=O)c1nc2ccccc2s1 | 0.916

The recorded normalized growth for `O=C(NC(=O)c1c(F)cccc1Cl)OCc1ccc(Cl)cc1Cl` is 0.876

Lab book: normalized growth of `CCOC(=O)/C(=N/Nc1c(Cl)cccc1Cl)c1csc(N)n1` noted as 0.913

Record summary for `Cc1c2c(=O)[nH]ncc2c(-c2ccccc2)n1-c1ccc([N+](=O)[O-])cc1` : reported normalized growth = 0.975

For reference, reported normalized growth for `Cc1ccc(S(=O)(=O)CCSC2=CC(=O)CC(C)(C)S2)cc1` stands at 0.963

normalized growth measured on `O=C(NCCSCc1ccco1)Nc1cc(Cl)cc(Cl)c1` = 0.893

// `CCCc1c(C(=O)NC2Cc3ccccc3C2)cnn1-c1ccccc1` : normalized growth value = 0.968
